Here, each record is paired with measured GI50 data.
test-summary: Antiproliferative activity against human leukemia cells after 48 hrs by sulforhodamine B assay
Assay type: functional
measurement-context: Leukemia cell
Report as a plain number; the unit nM is understood.

Examples with answers:
[
  {
    "smiles-str": "CS(=O)(=O)Nc1cccc(-c2cc(-c3ccccc3Cl)c(C#N)c(N)n2)c1",
    "unit-tag": "nM",
    "test-result": 580
  },
  {
    "smiles-str": "CN(C)c1ccc(-c2cc(-c3cccc(NS(C)(=O)=O)c3)nc(N)c2C#N)cc1",
    "unit-tag": "nM",
    "test-result": 40
  },
  {
    "smiles-str": "COc1cccc(-c2cc(-c3cccc(NS(C)(=O)=O)c3)nc(N)c2C#N)c1O",
    "unit-tag": "nM",
    "test-result": 140
  }
]

Look up and report measured GI50 for this entry: `COc1ccc(-c2cc(-c3cccc(NS(C)(=O)=O)c3)nc(N)c2C#N)cc1`
100

* * *

system: Heat shock protein HSP90 (Homo sapiens, UniProt P07900+P08238)
test-summary: Inhibition of biotinylated geldanamycin binding to human recombinant Hsp90 ATP binding domain after 60 mins by fluorescence assay
Type: protein assay
assay-readout: EC50 (nM)
Reply numerically in nM, unit not repeated.

[
  {
    "smiles-str": "CCN(CC)c1ccc(-c2cc(-c3cccc(NS(C)(=O)=O)c3)nc(N)c2C#N)cc1",
    "system": "Heat shock protein HSP90 (Homo sapiens, UniProt P07900+P08238)",
    "unit-tag": "nM",
    "EC50": 783
  },
  {
    "smiles-str": "COc1ccc(-c2cc(-c3cccc(NS(C)(=O)=O)c3)nc(N)c2C#N)cc1",
    "system": "Heat shock protein HSP90 (Homo sapiens, UniProt P07900+P08238)",
    "unit-tag": "nM",
    "EC50": 541
  },
  {
    "smiles-str": "COc1ccccc1-c1cc(-c2cccc(NS(C)(=O)=O)c2)nc(N)c1C#N",
    "system": "Heat shock protein HSP90 (Homo sapiens, UniProt P07900+P08238)",
    "unit-tag": "nM",
    "EC50": 634
  },
  {
    "smiles-str": "COc1cccc(-c2cc(-c3cccc(NS(C)(=O)=O)c3)nc(N)c2C#N)c1O",
    "system": "Heat shock protein HSP90 (Homo sapiens, UniProt P07900+P08238)",
    "unit-tag": "nM",
    "EC50": 252
  },
  {
    "smiles-str": "CN(C)c1ccc(-c2cc(-c3cccc(NS(C)(=O)=O)c3)nc(N)c2C#N)cc1",
    "system": "Heat shock protein HSP90 (Homo sapiens, UniProt P07900+P08238)",
    "unit-tag": "nM",
    "EC50": 371
  }
]

Look up Heat shock protein HSP90 (Homo sapiens, UniProt P07900+P08238) data: EC50 of `COc1ccc(-c2cc(-c3cccc(NS(C)(=O)=O)c3)nc(N)c2C#N)cc1OC` , then report it.
867

Specify EC50 for `CS(=O)(=O)Nc1cccc(-c2cc(-c3ccccc3Cl)c(C#N)c(N)n2)c1` , system Heat shock protein HSP90 (Homo sapiens, UniProt P07900+P08238).
950
